Parameter inhibition: see the listing below.
- test-details: Mycobacterium tuberculosis growth inhibition, primary screen (AID 1259343)
- test-parameters: at 10 µM, stronger effect = higher value
The whole screen tested about 6,200 compounds, of which about 2,900 (47%) were called active. So high a share suggests a set chosen from earlier hits. Some of the results follow.
Respond with the bare value in %.

Example entries begin here.
CCc1ccc(N2C(=O)C3N=NN(Cc4ccccc4)C3C2=O)cc1 (configuration not stated)
93.5
COc1c(O)cc(O)cc1O
19.6
Cc1cc(C(F)(F)F)c2c(n1)sc1c(O)cc(=O)[nH]c12
27.2
FC(F)(F)COCCCn1nnc(-c2ccsc2)n1
79.5

Entry under test: c1cc(-c2nc3cc(Oc4ccc5oc(-c6ccncc6)nc5c4)ccc3o2)ccn1 . Its inhibition was 32.7

Entry under test: O=[N+]([O-])c1ccc(Oc2ccc(-c3ccccc3)cc2)cc1 . Its inhibition was -41

Entry under test: COc1ccc(C(=O)Nc2cnn(C(C)(C)C)c2)c(O)c1 . Its inhibition was -6.01

Entry under test: Cn1cnnc1SCC(=O)Nc1ccc2c(c1)OC(F)(F)O2 . Its inhibition was 16.7
